Reported % Cross-Reactivity is given for each of the following compounds.
- System: anti-sulfamethazine antibody
- measurementNotes: Competitive direct enzyme immunoassay (EIA) with immobilized anti-sulfamethazine antibody and sulfamethazine-HRP conjugate
- Type: binding, New Zealand female white rabbits
- conditionSet: (nM of sulfamethazine for 50% binding/nM sulfa analogue for 50% binding) x 100

| compound | % Cross-Reactivity / % |
| --- | --- |
| Nc1ccc(S(=O)(=O)Nc2cnc3ccccc3n2)cc1 [Sulfaquinoxaline] | 0.0 |
| NS(=O)(=O)c1ccc(C(=O)O)cc1 [4-Carboxybenzenesulfonamide] | 0.0 |
| Cc1cc(C)nc(N)n1 [2-Amino-4,6-Dimethylpyrimidine] | 0.07 |
| CC(=O)Nc1ccc(S(=O)(=O)Nc2ccc([N+](=O)[O-])cc2)cc1 [Sulfanitran] | 0.0 |
| Nc1ccc(S(=O)(=O)[O-])cc1.O.[Na+] [Sulfanilic acid, sodium salt hydrate] | 0.0 |
| Cc1cc(NS(=O)(=O)c2ccc(N)cc2)no1 [Sulfamethoxazole] | 0.0 |

----------
- Tested on: anti-sulfamethazine antibody
- measurementNotes: Competitive direct enzyme immunoassay (EIA) with immobilized anti-sulfamethazine antibody and sulfamethazine-HRP conjugate
- Assay type: binding, New Zealand female white rabbits
- conditionSet: (nM of sulfamethazine for 50% binding/nM sulfa analogue for 50% binding) x 100
- Protocol: Each well of the microtiter plate was filled with 200 µL solution of r-Protein A (2 µg/mL in l0 mM PBS, pH 7.2). These strips were sealed and incubated at 4°C for 5 hours. […] The enzyme conjugate (sulfamethazine-HRP) was appropriately diluted (generally l:l000) with 20 mM PBS, pH 7.2, containing 0.0l percent casein (w/v) and mixed with standards or samples in l0:l ratio. […] Absorbance of the color was monitored at 405 nm in an EIA plate reader. […]
outcomeMeasure: % Cross-Reactivity (%)

| compound | studySystem | outcomeMeasure | unitSymbol | result |
| --- | --- | --- | --- | --- |
| Nc1ccc(S(=O)(=O)F)cc1 [Sulfanilyl fluoride] | anti-sulfamethazine antibody | % Cross-Reactivity | % | 0.0 |
| COc1cc(NS(=O)(=O)c2ccc(N)cc2)nc(OC)n1 | anti-sulfamethazine antibody | % Cross-Reactivity | % | 0.06 |
| Cc1noc(NS(=O)(=O)c2ccc(N)cc2)c1C | anti-sulfamethazine antibody | % Cross-Reactivity | % | 0.0 |
| Nc1ccc(S(=O)(=O)Nc2ccc(Cl)nn2)cc1 | anti-sulfamethazine antibody | % Cross-Reactivity | % | 0.0 |
| [H]/N=C(/N)NS(=O)(=O)c1ccc(N)cc1 | anti-sulfamethazine antibody | % Cross-Reactivity | % | 0.0 |
| Nc1ccc(S(N)(=O)=O)cc1 [Sulfanilamide] | anti-sulfamethazine antibody | % Cross-Reactivity | % | 0.0 |
| Nc1ccc(S(=O)(=O)Nc2ncccn2)cc1 | anti-sulfamethazine antibody | % Cross-Reactivity | % | 0.0 |
| Nc1ccc(S(=O)(=O)Nc2ccccn2)cc1 | anti-sulfamethazine antibody | % Cross-Reactivity | % | 0.0 |
| Cc1cc(C)nc(NS(=O)(=O)c2ccc(N)cc2)n1 | anti-sulfamethazine antibody | % Cross-Reactivity | % | 100.0 |
| CC(=O)NS(=O)(=O)c1ccc(N)cc1 [Sulfacetamide] | anti-sulfamethazine antibody | % Cross-Reactivity | % | 0.66 |
| Cc1cc(NS(=O)(=O)c2ccc(N)cc2)nc(C)n1 | anti-sulfamethazine antibody | % Cross-Reactivity | % | 0.0 |
| Cc1nnc(NS(=O)(=O)c2ccc(N)cc2)s1 | anti-sulfamethazine antibody | % Cross-Reactivity | % | 0.0 |
| Cc1nc(NS(=O)(=O)c2ccc(N)cc2)oc1C | anti-sulfamethazine antibody | % Cross-Reactivity | % | 0.0 |
| Nc1ccc(S(=O)(=O)Nc2nccs2)cc1 | anti-sulfamethazine antibody | % Cross-Reactivity | % | 0.07 |
| NS(N)(=O)=O [Sulfamide] | anti-sulfamethazine antibody | % Cross-Reactivity | % | 0.0 |
| COc1cnc(NS(=O)(=O)c2ccc(N)cc2)nc1 | anti-sulfamethazine antibody | % Cross-Reactivity | % | 0.34 |
| Cc1c[nH]c(=O)[nH]c1=O | anti-sulfamethazine antibody | % Cross-Reactivity | % | 0.0 |
| Cc1cc(C(C)(C)C)c(O)c(C(C)(C)C)c1 | anti-sulfamethazine antibody | % Cross-Reactivity | % | 0.0 |
| Nc1ccc(S(=O)(=O)NC(=O)c2ccccc2)cc1 [Sulfabenzamide] | anti-sulfamethazine antibody | % Cross-Reactivity | % | 0.0 |
| COc1ccc(NS(=O)(=O)c2ccc(N)cc2)nn1 | anti-sulfamethazine antibody | % Cross-Reactivity | % | 0.0 |
| Nc1ccc(S(=O)(=O)Nc2ccc3cn[nH]c3c2)cc1 | anti-sulfamethazine antibody | % Cross-Reactivity | % | 0.0 |
